Molecular target: CXCL8_HUMAN (human, UniProt P10145 28-99)
Sequence (P10145 28-99): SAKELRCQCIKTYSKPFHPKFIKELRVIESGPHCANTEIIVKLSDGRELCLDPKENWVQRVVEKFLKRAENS
Assay: BLI
Let's look at some binders and their measured pKd.
Remember the convention: pKd equals -log10 of concentration in molar.

## Task Given P1166_IXORI (other) GPETKEDKKSDVYELFTVEYCGTNCTLLTNGRWTACTGKKGTCRCYHESGEKVGLCLSTEYTDFSEYPNPKSSEIDAAAPLPRETH , state its recorded pKd.
## Result 6.89

## Task Given P1162_IXORI (other) LNDEELFTVDYCGTNCTQQPNGSWTTCPGNCSCYHEDGKTDGFCLSTEYTDFTQFPNLTSEEMDAATPRPE , state its recorded pKd.
## Result 7.91

## Task Given P1127_IXORI (other) AGKDDEHFSVDYCGMNCTQQEDGSWTACSGRNGECRCYHESGKRSGLCLSTTYIDFSEYGNLSDSDIAAASPRLSMKESH , state its recorded pKd.
## Result 7.88

## Task Given P1132_IXORI (other) LSDEDELFSVEYCGTNCTKQDTGSWTTCSGNCTCYHEDGKKVGLCLSTEYTDFTKFPKPTSEEIANARPLPKREKTLN , state its recorded pKd.
## Result 7.48

## Task Given P1174_IXORI (other) LNNENELFSVEYCGANCTQQDNGSWTKCKGNCTCYHEDGKRYGLCLSTEYTDFTQFPKPTSEEIADASPRPKETNSH , state its recorded pKd.
## Result 7.09

## Task Given P1229_IXORI (other) DDEFFTVDYCGMNCTLQQDGSWTPCTQKNAECKCYHESGSSVGLCLSTAYTDFNQFGDPNNSDLDAATPRHPDASSR , state its recorded pKd.
## Result 7.51

## Task Given P1095_IXORI (other) HSPVAGSEVQKLTSDPNDDIDVSYCGMNCTVVNGKSDECSENCKCLHEGDDPKGICVAITYFGDWGDPNDDPKINEATPQTQIFEKKRK , state its recorded pKd.
## Result 6.96

## Task Given P1128_IXORI (other) KDDEHFSVDYCGMNCTQQEDGSWTACSGRNEECRCYHESGKKNGLCLSTTYIDFSQYGNPSDSDIAAASPRP , state its recorded pKd.
## Result 8.64

## Task Given P1096_IXORI (other) HTTVTGSVEGKPNNPNEDIEVSYCRMNCTVENGVSSACSGDCVCVHRDNEPNGICVEITYFGDFGDPSQDPSIDEAAPRESVSKRRSNGES , state its recorded pKd.
## Result 7.35

## Task Given P1170_IXORI (other) LGDEDQLFSVEYCGTNCTQQDDGKWTPCSGKNGKCKCYHEDGKRYGLCLYTEYTDFSQYPNPEGSEIENTRPRP , state its recorded pKd.
## Result 7.91
